tested on: Pseudomonas aeruginosa; test: Antibacterial activity against Pseudomonas aeruginosa ATCC 27853 incubated after 24 hrs by resazurin dye based broth microdilution assay; type: functional; conditions: ATCC 27853, 24 h
Kindly apply the following: criterion met if MIC90 is less than 30 µg/mL, criterion not met in every other case.

Below, 3 molecules whose answers are already recorded.
[[record]]
molecule = "O=C(O)c1cn(-c2ccc(F)cc2F)c2nc(Sc3nc4ccccc4[nH]3)c(F)cc2c1=O"
group = "criterion not met"

[[record]]
molecule = "CN(C)CCCN1CCN(c2nc3c(cc2F)c(=O)c(C(=O)O)cn3-c2ccc(F)cc2F)CC1"
group = "criterion met"

[[record]]
molecule = "CCOC(=O)c1cn(-c2ccc(F)cc2F)c2nc(Sc3nc4cc(Cl)ccc4[nH]3)c(F)cc2c1=O"
group = "criterion not met"


Q: Does this molecule meet the criterion MIC90 < 30 µg/mL? O=C(O)c1cn(C2CC2)c2cc(N3CCNCC3)c(F)cc2c1=O [CIPROFLOXACIN]
A: criterion met

* * *

Catalogue of selectivity ratio values
test: Selectivity index, ratio of IC50 for mouse NIH/3T3 cells to MIC90 for Klebsiella pneumoniae ATCC 700603; type: toxicity; conditions: read-out: Selectivity Index
Just the number, please, no unit attached.

[[record]]
smiles_record = "CN(C)CCCN1CCN(c2nc3c(cc2F)c(=O)c(C(=O)O)cn3-c2ccc(F)cc2F)CC1"
quantitative_result = 54


Q: Reported selectivity ratio for O=C(O)c1cn(-c2ccc(F)cc2F)c2nc(Sc3nc4cc([N+](=O)[O-])ccc4[nH]3)c(F)cc2c1=O : what is it?
A: 8

* * *

Overview of reported selectivity ratio across a group of compounds:
assay: Selectivity index, ratio of IC50 for mouse NIH/3T3 cells to MIC90 for Pseudomonas aeruginosa ATCC 27853; type: toxicity; details: read-out: Selectivity Index

[[record]]
smiles_record = "CN(C)CCCN1CCN(c2nc3c(cc2F)c(=O)c(C(=O)O)cn3-c2ccc(F)cc2F)CC1"
result = 54


Q: May I ask what selectivity ratio has been recorded for O=C(O)c1cn(-c2ccc(F)cc2F)c2nc(Sc3nc4cc([N+](=O)[O-])ccc4[nH]3)c(F)cc2c1=O ?
A: 8

* * *

system: Pseudomonas aeruginosa; assay: Antibacterial activity against Pseudomonas aeruginosa ATCC 27853 incubated after 24 hrs by resazurin dye based broth microdilution assay; format: functional; details: ATCC 27853, 24 h
Attribute measured: log10(MIC90) (log10 of the value in µg/mL)
Log scale reminder: MIC90 in µg/mL, then log10 taken.

Here's what some known entries look like.
[[record]]
smiles_record = "CCOC(=O)c1cn(-c2ccc(F)cc2F)c2nc(Sc3nc4ccccc4[nH]3)c(F)cc2c1=O"
quantitative_result = 2.10

[[record]]
smiles_record = "CCOC(=O)c1cn(-c2ccc(F)cc2F)c2nc(Sc3nc4cc(C)ccc4[nH]3)c(F)cc2c1=O"
quantitative_result = 1.80

[[record]]
smiles_record = "Cc1ccc2[nH]c(Sc3nc4c(cc3F)c(=O)c(C(=O)O)cn4-c3ccc(F)cc3F)nc2c1"
quantitative_result = 1.19

[[record]]
smiles_record = "CCOC(=O)c1cn(-c2ccc(F)cc2F)c2nc(Sc3nc4cc([N+](=O)[O-])ccc4[nH]3)c(F)cc2c1=O"
quantitative_result = 2.10

[[record]]
smiles_record = "CCOC(=O)c1cn(-c2ccc(F)cc2F)c2nc(N3CCN(CCCN(C)C)CC3)c(F)cc2c1=O"
quantitative_result = 2.10


Q: Can you share its log10(MIC90)? I mean this compound: O=C(O)c1cn(-c2ccc(F)cc2F)c2nc(Sc3nc4cc(Cl)ccc4[nH]3)c(F)cc2c1=O
A: 1.49

Q: Name the recorded log10(MIC90) for O=C(O)c1cn(-c2ccc(F)cc2F)c2nc(Sc3nc4cc([N+](=O)[O-])ccc4[nH]3)c(F)cc2c1=O .
A: 1.19

Q: Return reported log10(MIC90); argument: O=C(O)c1cn(-c2ccc(F)cc2F)c2nc(Sc3nc4ccccc4s3)c(F)cc2c1=O
A: 1.49

Q: Requested field: log10(MIC90). Item: CCOC(=O)c1cn(-c2ccc(F)cc2F)c2nc(Sc3nc4ccccc4s3)c(F)cc2c1=O
A: 2.10

Q: # lookup: log10(MIC90) of COc1c(N2C[C@@H]3CCCN[C@@H]3C2)c(F)cc2c(=O)c(C(=O)O)cn(C3CC3)c12
A: 0.59
